Each entry below carries its measured pIC50, system: rnADAMTS-5 (1-564-6H) (Rattus norvegicus (Rat), UniProt Q6TY19).
Sequence (Q6TY19 entry or part of it): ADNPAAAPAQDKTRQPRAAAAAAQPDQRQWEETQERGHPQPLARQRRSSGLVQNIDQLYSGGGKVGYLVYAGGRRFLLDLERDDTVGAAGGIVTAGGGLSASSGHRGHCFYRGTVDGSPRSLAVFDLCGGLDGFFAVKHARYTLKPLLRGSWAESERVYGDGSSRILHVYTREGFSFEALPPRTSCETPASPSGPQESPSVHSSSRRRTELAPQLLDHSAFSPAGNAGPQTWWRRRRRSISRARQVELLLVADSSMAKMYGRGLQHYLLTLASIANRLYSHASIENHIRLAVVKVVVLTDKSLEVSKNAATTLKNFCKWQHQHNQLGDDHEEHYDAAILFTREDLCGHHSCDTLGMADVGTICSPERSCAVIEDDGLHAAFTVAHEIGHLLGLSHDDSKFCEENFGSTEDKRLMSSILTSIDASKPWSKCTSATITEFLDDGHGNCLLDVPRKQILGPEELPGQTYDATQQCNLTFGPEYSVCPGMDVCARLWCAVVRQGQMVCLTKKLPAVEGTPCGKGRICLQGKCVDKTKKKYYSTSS
pIC50: −log10 of the molar value.

Some solved entries appear below for comparison.
compound	pIC50
O=C1NC(=O)C(CCC(=O)N2CCC(c3cccc(F)c3)CC2)(C2CC2)N1 (centres unmarked)	7.30 to 7.60
C[C@@H](C[C@@]1(C)NC(=O)NC1=O)C(=O)N1CCC(c2ccccc2)CC1	7.00 to 7.30
C[C@@H](C[C@@]1(C)NC(=O)NC1=O)C(=O)N1CCC(c2ccc(F)cc2)CC1 (stereo in doubt)	7.00 to 7.30
COc1cc(C2CCN(C(=O)CC[C@H]3NC(=O)NC3=O)CC2)cc(OC)c1Cl	< 7.00

# ---- query compound ----
Tell me pIC50 of COc1cc(C2CCN(C(=O)CCC3(C)NC(=O)NC3=O)CC2)cc(OC)c1Cl (centres unmarked) when tested on rnADAMTS-5 (1-564-6H) (Rattus norvegicus (Rat), UniProt Q6TY19).
< 7.00
